Tested on: NHBE cells
Test: Biolog metabolic array: substrate use by NHBE cells with or without CA09 infection
Type: cell-based, human
Conditions: Virus: CA09-infected NHBE cells, MOI 1; Biolog PMM2; 4 hr
ASSAY_READOUT: 590 nm absorbance normalized to zero hour (substrate use), 4 hr

> print(dat)
                                   molecule  measured.on  obs.value
1  O[C@H]1[C@H](O)[C@@H](O)[C@H](O)[C@@H](O)[C@H]1O   NHBE cells       0.81
2  OC[C@H]1O[C@@](CO)(O[C@H]2O[C@H](CO)[C@@H](O)[C@H](O)[C@H]2O)[C@@H](O[C@H]2O[C@H](CO)[C@@H](O)[C@H](O)[C@H]2O)[C@@H]1O   NHBE cells       2.88
3            O=C[C@@H](O)[C@H](O)[C@H](O)CO   NHBE cells       1.07
4                CC(O)CO (centres unmarked)   NHBE cells       2.94
5  OC[C@H]1O[C@@H](O[C@H]2[C@H](O)[C@@H](O)[C@@H](O)O[C@@H]2CO)[C@H](O)[C@@H](O)[C@H]1O   NHBE cells       0.28
6  CO[C@@H]1O[C@H](CO)[C@H](O)[C@H](O)[C@H]1O [b-Methyl-D-Galactoside]   NHBE cells       1.18
7  OC[C@H]1O[C@@H](OC[C@H]2OC(O)[C@H](O)[C@@H](O)[C@@H]2O)[C@H](O)[C@@H](O)[C@@H]1O (some centres unmarked)   NHBE cells       1.47
8           O=C[C@H](O)[C@@H](O)[C@@H](O)CO   NHBE cells       3.10

---

IC50 values by entry
Tested on: NHBE cells
Experiment: cells
Assay type: cell-based, human
Details: […]; prophylactic schedule; dose response 4 nM to 10 μM; […]; read-out: IC50, Prophylactic Treatment, Control
ASSAY_READOUT: IC50 (nM)

> print(dat)
                                   compound  assay.readout  obs.value
1  N#C/C(=C\c1ccc(O)cc1)C(=O)O [ALPHA-CYANO-4-HYDROXYCINNAMIC ACID]           IC50       3000
2  O=C([O-])CC(O)C(=O)[O-].[Na+].[Na+] (racemic) [DISODIUM DL-MALATE HYDRATE]           IC50         30
3     O=[N+]([O-])c1ccc(O)c([N+](=O)[O-])c1           IC50        380
4            CCCCCCCCCCCCCCOc1ccc(C(=O)O)o1           IC50       4000

---

Tested on: NHBE cells
Assay: Biolog metabolic array: substrate use by NHBE cells with or without CA09 infection
Format: cell-based, human
Details: Control (uninfected) NHBE cells, 8 hr
ASSAY_READOUT: 590 nm absorbance normalized to zero hour (substrate use), 8 hr

> print(dat)
                                    compound  obs.value
 1  OCC1OC(OC2C(CO)OC(OC3C(CO)OC(O)C(O)C3O)C(O)C2O)C(O)C(O)C1O (stereo not drawn)       7.97
 2  Cc1cn([C@H]2C[C@H](O)[C@@H](CO)O2)c(=O)[nH]c1=O       0.62
 3  OC[C@@H]1OC(O)[C@@H](O)[C@H](O)[C@H]1O (stereo partly drawn)       3.55
 4  O=C[C@H](O)[C@@H](O)[C@H](O)[C@H](O)COP(=O)(O)O [D-Glucose-6-Phosphate]       1.28
 5      COC(=O)[C@@H](C)O [Methyl D-Lactate]       2.16
 6  CC(=O)C(C)O (stereo not drawn) [3-Hydroxy 2-Butanone]       1.86
 7  OC[C@@H](O)[C@@H](O[C@@H]1O[C@H](CO)[C@H](O)[C@H](O)[C@H]1O)[C@H](O)[C@@H](O)CO       0.47
 8  CO[C@H]1O[C@H](CO)[C@H](O)[C@H](O)[C@H]1O [a-Methyl-D-Galactoside]       1.15
 9  CO[C@@H]1O[C@H](CO)[C@@H](O)[C@H](O)[C@H]1O [b-Methyl-D-Glucoside]       3.05
10  OC[C@H]1O[C@@H](O[C@H]2[C@H](O)[C@@H](O)[C@@H](O)O[C@@H]2CO)[C@H](O)[C@@H](O)[C@H]1O       0.94
11  CC(=O)N[C@@H]1C(O)O[C@H](CO)[C@@H](O)[C@@H]1O (stereo partly drawn)       0.63
12             CC(O)C(C)O (stereo not drawn)       1.93
13  N[C@@H](C(=O)O)[C@@H](O)[C@H](O)[C@H](O)CO       0.97
14  C[C@@H](O)CC(=O)O [b-Hydroxy-Butyric Acid]       2.68
15  CC[C@H](O)C(=O)O (racemic) [D,L-a-Hydroxy-Butyric Acid]       0.72
16                O=C(O)CC(O)(CC(=O)O)C(=O)O       1.05
17  OC[C@H]1O[C@@](CO)(O[C@H]2O[C@H](CO)[C@@H](O)[C@H](O)[C@H]2O)[C@@H](O[C@H]2O[C@H](CO)[C@@H](O)[C@H](O)[C@H]2O)[C@@H]1O       3.55
18  O=C(CO)[C@@H](O[C@H]1O[C@H](CO)[C@@H](O)[C@H](O)[C@H]1O)[C@H](O)[C@H](O)CO       0.51
